Would you mind telling me the reported protein stability index of each entry?
B1: PSD2 (parent)
chain: PLMGETQERERVLTHFSRRYCQCN

Variants of: B1
METHOD DESCRIPTION: protein stability index of a GFP-peptide fusion (GPS, HEK-293T) (PSI 1-6); higher = more stable;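 further: lentivirally expressed fusions sorted by FACS into six bins by GFP to DsRed ratio, PSI derived from sequencing read proportions per bin multiplied by bin number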
TEST CONDITIONS: c terminus: a fixed tail appended
One number for each entry.

Below are worked cases with known answers.
1) PLMIETQERERVLTHFSRRYCQCN [G4I]; 2.76
2) PLAGETQERERVLTHFSRRYCQCN [M3A]; 3.72
3) PLMGETQEIERVLTHFSRRYCQCN [R9I]; 2.07
4) PLMGETQERERVWTHFSRRYCQCN [L13W]; 2.7
5) PLMGETQFRERVLTHFSRRYCQCN [E8F]; 1.67

Dear colleague, could you please provide protein stability index for the variants listed below?
1. PLMGTTQERERVLTHFSRRYCQCN [E5T]
2. PLMGETQERSRVLTHFSRRYCQCN [E10S]
3. PLMKETQERERVLTHFSRRYCQCN [G4K]
4. PLMGETQERERVLTTFSRRYCQCN [H15T]
5. PLMGETQERERVLTHFSRRYCDCN [Q22D]
6. PLMGETQEYERVLTHFSRRYCQCN [R9Y]
7. PLMGETQERERVLTHFSRRYCQDN [C23D]
8. PLMGETQPRERVLTHFSRRYCQCN [E8P]

OUT:
1. 2.09
2. 2.14
3. 2.6
4. 3.03
5. 3.85
6. 2.14
7. 4.04
8. 2.27

For each entry beneath this line, provide reported protein stability index.
1. PLMGETQERERVLQHFSRRYCQCN [T14Q]
2. PLMGETQEGERVLTHFSRRYCQCN [R9G]
3. PLMGETQERECVLTHFSRRYCQCN [R11C]
4. PLMGHTQERERVLTHFSRRYCQCN [E5H]

OUT:
1. 2.56
2. 2.98
3. 3.88
4. 2.77

Please give protein stability index for each item listed below.
1. PLMGETQERERVLTHFSRRYCQPN [C23P]
2. PLMGETQEVERVLTHFSRRYCQCN [R9V]
3. PLMGETQEREPVLTHFSRRYCQCN [R11P]

OUT:
4.09
2.94
3.02
